Test system: OVCAR-5 complex spheroids with HUVEC/MSC, viability, % test/control
assay_info: Anticancer human tumor OVCAR-5 cell line growth inhibition [AhR];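 note: spheroids exposed to compounds for 7 days; 100% = DMSO vehicle control wells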
reported_conditions: second compound 0.1 µM; first compound 0.0949 µM; stronger effect = lower value
What viability, T/C was measured for each of the following?
Answers are plain numbers, in %.

Take a look at these entries with their results.
molecule	recorded_value
CCN(c1cc(-c2ccc(CN3CCOCC3)cc2)cc(C(=O)NCc2c(C)cc(C)[nH]c2=O)c1C)C1CCOCC1 + Cc1cncc(-c2nc(NCCc3c[nH]c4ccccc34)c3ncn(C(C)C)c3n2)c1	98.9
CCc1c2c(nc3ccc(O)cc13)-c1cc3c(c(=O)n1C2)COC(=O)[C@]3(O)CC + CC(CO)NC(=O)c1cc(-c2ccc(Cl)cc2)nn(-c2cnn(C)c2)c1=O	17.8
Nc1ncn(C2CC(O)C(CO)S2)c(=O)n1 (configuration not stated) + CC(CO)NC(=O)c1cc(-c2ccc(Cl)cc2)nn(-c2cnn(C)c2)c1=O	103
Nc1ncn(C2CC(O)C(CO)S2)c(=O)n1 (configuration not stated) + Cc1ccccc1N=Nc1ccc(NC(=O)c2ccnn2C)c(C)c1	87.4
CC(C)CC(NC(=O)C(Cc1ccccc1)NC(=O)c1cnccn1)B(O)O (configuration not stated) + Cc1ccccc1N=Nc1ccc(NC(=O)c2ccnn2C)c(C)c1	25

Quick request: viability, T/C for each listed item, please.
1. O=C(C=Cn1cnc(-c2cc(C(F)(F)F)cc(C(F)(F)F)c2)n1)NNc1cnccn1 + CC(CO)NC(=O)c1cc(-c2ccc(Cl)cc2)nn(-c2cnn(C)c2)c1=O
2. Nc1ncn(C2CC(O)C(CO)S2)c(=O)n1 (configuration not stated) + Cc1cncc(-c2nc(NCCc3c[nH]c4ccccc34)c3ncn(C(C)C)c3n2)c1
3. CCc1c2c(nc3ccc(O)cc13)-c1cc3c(c(=O)n1C2)COC(=O)[C@]3(O)CC + Cc1ccccc1N=Nc1ccc(NC(=O)c2ccnn2C)c(C)c1
4. CCc1c2c(nc3ccc(O)cc13)-c1cc3c(c(=O)n1C2)COC(=O)[C@]3(O)CC + Cc1cncc(-c2nc(NCCc3c[nH]c4ccccc34)c3ncn(C(C)C)c3n2)c1
5. CCN(c1cc(-c2ccc(CN3CCOCC3)cc2)cc(C(=O)NCc2c(C)cc(C)[nH]c2=O)c1C)C1CCOCC1 + CC(CO)NC(=O)c1cc(-c2ccc(Cl)cc2)nn(-c2cnn(C)c2)c1=O

A.
[101, 85.9, 22.5, 23.4, 111]

For every record below, what is its viability, T/C?
1. CC(C)CC(NC(=O)C(Cc1ccccc1)NC(=O)c1cnccn1)B(O)O (configuration not stated) + CC(CO)NC(=O)c1cc(-c2ccc(Cl)cc2)nn(-c2cnn(C)c2)c1=O
2. O=C(C=Cn1cnc(-c2cc(C(F)(F)F)cc(C(F)(F)F)c2)n1)NNc1cnccn1 + Cc1cncc(-c2nc(NCCc3c[nH]c4ccccc34)c3ncn(C(C)C)c3n2)c1

A.
[18.2, 102]
